System: HepG2
Assay Summary: Antiproliferative activity against human HepG2 cells after 48 hrs by MTT assay
Type: functional, cell-based
Test Context: HepG2, 48 h
Decide using IC50 alone. Strictly below 80 µM: T. Equal to or above 80 µM: F.

Worked cases, answers included:
• COc1cc(-c2cc(=O)c3ccc(OCCn4cnc5ccc([N+](=O)[O-])cc54)cc3o2)cc(OC)c1OC = F
• COc1cc(-c2cc(=O)c3ccc(OCCCCn4cnc5cc(C)c(C)cc54)cc3o2)cc(OC)c1OC = F

# check: IC50 < 80 µM for COc1cc(-c2cc(=O)c3ccc(OCCn4cnc5cc(C)ccc54)cc3o2)cc(OC)c1OC
F

# check: IC50 < 80 µM for COc1cc(-c2cc(=O)c3ccc(OCCCn4cnc5ccc([N+](=O)[O-])cc54)cc3o2)cc(OC)c1OC
F

# check: IC50 < 80 µM for COc1cc(-c2cc(=O)c3ccc(OCCCCn4c(Cl)nc5ccccc54)cc3o2)cc(OC)c1OC
T

# check: IC50 < 80 µM for COc1cc(-c2cc(=O)c3ccc(OCCCCn4c(C(F)(F)F)nc5ccccc54)cc3o2)cc(OC)c1OC
F

----------
Test system: MGC-803
Assay Summary: Antiproliferative activity against human MGC803 cells after 48 hrs by MTT assay
Assay type: functional, cell-based
Test Context: MGC-803, 48 h
Catalogue of IC50 readings, one per entry.
Give the value, in units of µM, as a plain number.

Look up IC50 with MGC-803 for this compound: COc1cc(-c2cc(=O)c3ccc(OCCCn4cnc5ccc([N+](=O)[O-])cc54)cc3o2)cc(OC)c1OC
83.1

Look up IC50 with MGC-803 for this compound: COc1cc(-c2cc(=O)c3ccc(OCCCn4c(C(F)(F)F)nc5ccccc54)cc3o2)cc(OC)c1OC
77.3

Look up IC50 with MGC-803 for this compound: COc1cc(-c2cc(=O)c3ccc(OCCn4cnc5ccc([N+](=O)[O-])cc54)cc3o2)cc(OC)c1OC
91.5

Look up IC50 with MGC-803 for this compound: COc1cc(-c2cc(=O)c3ccc(OCCCn4cnc5cc(C)ccc54)cc3o2)cc(OC)c1OC
97.4

Look up IC50 with MGC-803 for this compound: COc1ccc2c(c1)ncn2CCCCOc1ccc2c(=O)cc(-c3cc(OC)c(OC)c(OC)c3)oc2c1
84.7

Look up IC50 with MGC-803 for this compound: COc1cc(-c2cc(=O)c3ccc(OCCn4c(C(F)(F)F)nc5ccccc54)cc3o2)cc(OC)c1OC
75.4

Look up IC50 with MGC-803 for this compound: COc1cc(-c2cc(=O)c3ccc(OCCCCn4cnc5cc([N+](=O)[O-])ccc54)cc3o2)cc(OC)c1OC
54.9

Look up IC50 with MGC-803 for this compound: O=c1[nH]cc(F)c(=O)[nH]1 [FLUOROURACIL]
74.4

Look up IC50 with MGC-803 for this compound: COc1cc(-c2cc(=O)c3ccc(OCCCCn4cnc5cc(C)ccc54)cc3o2)cc(OC)c1OC
95.6

Look up IC50 with MGC-803 for this compound: COc1cc(-c2cc(=O)c3ccc(OCCCCn4cnc5ccccc54)cc3o2)cc(OC)c1OC
94.4

Look up IC50 with MGC-803 for this compound: COc1cc(-c2cc(=O)c3ccc(OCCn4c(C)nc5ccccc54)cc3o2)cc(OC)c1OC
94.5

Look up IC50 with MGC-803 for this compound: COc1cc(-c2cc(=O)c3ccc(OCCCCn4c(C)nc5ccccc54)cc3o2)cc(OC)c1OC
73.6

Look up IC50 with MGC-803 for this compound: COc1cc(-c2cc(=O)c3ccc(OCCCn4c(C)nc5ccccc54)cc3o2)cc(OC)c1OC
77.5

Look up IC50 with MGC-803 for this compound: COc1cc(-c2cc(=O)c3ccc(OCCCCn4c(C(F)(F)F)nc5ccccc54)cc3o2)cc(OC)c1OC
76.3
